- measurement-notes: Acute toxicity of DMT in mice
- experimental-parameters: mouse, in vivo, iv; males
- Description: In these studies, 4- to 5-week-old Harlan ICR mice were used. […]
value-type: LD50 (mg/kg)
Please state the figure in mg/kg; there is no need to write the unit.

Q: Param item = CCC1OC(=O)CC(O)C(C)C(OC2OC(C)C(OC3CC(C)(O)C(O)C(C)O3)C(N(C)C)C2O)C(CC=O)CC(C)C(=O)C=CC(C)=CC1CO (stereo not shown) ; retrieve measured LD50.
Result: 100

* * *

- measurement-notes: Acute toxicity of DMT in mice
- experimental-parameters: mouse, in vivo, iv; females
value-type: LD50

Q: Param item = CCC1OC(=O)CC(O)C(C)C(OC2OC(C)C(OC3CC(C)(O)C(O)C(C)O3)C(N(C)C)C2O)C(CC=O)CC(C)C(=O)C=CC(C)=CC1CO (stereo not shown) [DMT, 23-demycinosyltylosin] ; retrieve measured LD50.
Result: 186 mg/kg
